Cited source for all entries: patent EP4640678A1

- assay notes: Study of pharmacokinetics in rats
- Assay type: in vivo
- test conditions: rat, po; male SD rats, intragastrical gavage, 30 mg/kg, plasma
Note to self: values exactly at 90 µg·h/mL are 1.0. So AUC(0-t) at or above 90 µg·h/mL is 1.0, below is 0.0.

Evaluate [2H]C([2H])([2H])Oc1cn([C@@H](CC)C(=O)Nc2ccc(C(=O)NC)c(F)c2)c(=O)cc1-c1cc(Cl)ccc1-n1cc(C(F)(F)F)nn1 : AUC(0-t) at minimum 90 µg·h/mL? 1.0

Evaluate [2H]C([2H])([2H])NC(=O)c1ccc(NC(=O)[C@H](CC)n2cc(OC)c(-c3cc(Cl)ccc3-n3cc(C(F)(F)F)nn3)cc2=O)cc1F : AUC(0-t) at minimum 90 µg·h/mL? 1.0

Evaluate [2H]C([2H])([2H])NC(=O)c1ccc(NC(=O)[C@H](CC)n2cc(OC([2H])([2H])[2H])c(-c3cc(Cl)ccc3-n3cc(C(F)(F)F)nn3)cc2=O)cc1F : AUC(0-t) at minimum 90 µg·h/mL? 1.0

Evaluate CC[C@@H](C(=O)Nc1ccc(C(=O)O)c(Cl)c1)n1cc(OC)c(-c2cc(Cl)ccc2-n2cc(C(F)(F)F)nn2)cc1=O : AUC(0-t) at minimum 90 µg·h/mL? 0.0
